biological target: Galectin-7 (Homo sapiens) (UniProt P47929); assay: Binding affinity to human galectin-7 by surface plasmon resonance method
Sequence (P47929 whole entry): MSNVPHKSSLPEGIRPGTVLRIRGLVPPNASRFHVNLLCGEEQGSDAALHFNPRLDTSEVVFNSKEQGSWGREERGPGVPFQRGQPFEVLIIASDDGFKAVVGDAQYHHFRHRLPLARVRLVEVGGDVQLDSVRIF
The source made the active and inactive calls. The rule behind the calls is not given here.
METRIC NAME: Activity

INSERT INTO assay_data (molecule, result_value) VALUES
  ('OC[C@H]1O[C@@H](OCCCCCCCCCCCCS)[C@H](O)[C@@H](O)[C@H]1O', 'inactive'),
  ('CC(=O)N[C@H]1[C@@H](OCCCCCCCCCCCCS)O[C@H](CO)[C@@H](O[C@@H]2O[C@H](CO)[C@H](O)[C@H](O)[C@H]2O)[C@@H]1O', '0.8 a.u.'),
  ('OC[C@H]1O[C@@H](O[C@H]2[C@H](O)C[C@@H](OCCCCCCCCCCCCS)O[C@@H]2CO)[C@H](O)[C@@H](O)[C@H]1O', 'inactive'),
  ('OC[C@H]1OC(O[C@H]2[C@H](O)[C@@H](O)[C@H](OCCCCCCCCCCCCS)O[C@@H]2CO)[C@H](O)[C@@H](O)[C@H]1O (stereo not given in full)', '4.2 a.u.'),
  ('OC[C@H]1O[C@@H](O[C@H]2C=C[C@@H](OCCCCCCCCCCCCS)O[C@@H]2CO)[C@H](O)[C@@H](O)[C@H]1O', 'inactive');
